- Experiment Notes: chemical genetic growth profiling, strain panel (AID 1159580);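 also: tested at 20 µM; growth read once vehicle control cultures reached saturation at 30 °C; 1 = growth at the plate median or of vehicle wells; lower values mean less growth of the strain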
- Settings: S. cerevisiae deletion strains, growth OD, locus YER111C, strain swi4, hits give low values
The campaign covered roughly 5,500 compounds. About 2,000 (36%) were called active. Another 18% or so got no clear call; they are omitted. The list shows a part of the results.
Measure Name: normalized growth
Just the number, please.

Answered cases to consult:
Compound	normalized growth
Nc1c2ccccc2nc2ccccc12 (tested in a mixture with another compound)	0.904
COc1ccc2c3c([nH]c2c1)C(C)=NCC3	0.993
NNc1nncc2ccccc12	0.986
CCOc1ccc2nc3cc(N)ccc3c(N)c2c1	0.987
CC(=O)O[C@@H]1CC[C@@]2(C)C(CC[C@]3(C)C2CC=C2C4CC(C)(C)CC[C@]4(C(=O)O)CC[C@]23C)C1(C)C (stereo partly specified)	0.96

Next:
# normalized growth (compound: Nc1c2c(nc3ccccc13)CCCC2 ) is 0.988

* * *

- Experiment Notes: chemical genetic growth profiling, strain panel (AID 1159580)
- Settings: S. cerevisiae deletion strains, growth OD, locus YLR262C, strain YPT6 (second series), hits give low values
Among all 5,500 compounds or so, about 2,000 (36%) were called active. Another 18% or so got no clear call; they are omitted. This is one part of the list.
The label is Condition met for normalized growth below 1 and Condition not met for normalized growth equal to or exceeding 1.

Structure Smiles String	Class Label
Cc1cc(O)cc(C)c1Cl	Condition met
Cc1cc(O)ccc1Cl	Condition met
Cc1cc(O)cc(O)c1C(=O)O	Condition not met

--- query ---
input: Check if normalized growth falls below 1 for NNC(=O)c1ccncc1 .
output: Condition not met

* * *

- Experiment Notes: chemical genetic growth profiling, strain panel (AID 1159580)
- Settings: S. cerevisiae deletion strains, growth OD, locus YDL192W, strain arf1, hits give low values
The whole screen tested about 5,500 compounds, of which about 2,000 (36%) were called active. Another 18% or so got no clear call; they are omitted. The list shows a part of the results.
Item-by-item account of normalized growth
Just the number, please.

Compound	normalized growth
Nc1ccc(S(=O)(=O)Nc2ccnn2-c2ccccc2)cc1	0.995
CC1=CCC2C3(C)C1=CC(=O)OC3CC1C(C)(C)CC(O)C(O)C12C (stereo unspecified)	1.01
CNCc1ccccc1	0.997

Record summary for CC(C)=CCCC1(C)C=Cc2c(O)c3c(c(CC=C(C)C)c2O1)OC12C(CC4CC1C(C)(C)OC2(C/C=C(/C)C(=O)O)C4O)C3=O (stereo unspecified) : reported normalized growth = 0.947

Input Cc1ccnc(NS(=O)(=O)c2ccc(N)cc2)n1 . Output normalized growth: 1.02

Entry under test: CCCCCCCCCCCC[C@H](C(=O)O)[C@@H](C)C(=O)O . Its normalized growth was 1.01

* * *

- Experiment Notes: chemical genetic growth profiling, strain panel (AID 1159580)
- Settings: S. cerevisiae deletion strains, growth OD, locus YNL067W, strain RPL9B, hits give low values
In all, about 5,500 compounds went through this assay and about 2,000 (36%) were called active. Not shown: some 18% with an inconclusive outcome. This is one part of the list.
Measure Name: normalized growth
Form field (numeric): enter value without unit.

Worked set:
Compound	normalized growth
CC(C)(Oc1ccc(CCNC(=O)c2ccc(Cl)cc2)cc1)C(=O)O	1.01
Cc1cc(C(C)(C)C)c(O)c(C(C)(C)C)c1	0.926
NNC(=O)c1ccncc1	0.996
CC(C)(Sc1cc(C(C)(C)C)c(O)c(C(C)(C)C)c1)Sc1cc(C(C)(C)C)c(O)c(C(C)(C)C)c1	1.03
Nc1ccccc1C(=O)CC(N)C(=O)O (configuration not stated)	0.998
COc1cc(N)c(Cl)cc1C(=O)NC1CCN(Cc2ccccc2)CC1	0.969

normalized growth reading for CO[C@@]12[C@@H]3NC3CN1C1=C(C(=O)C(N)=C(C)C1=O)[C@@H]2COC(N)=O (some centres not stated) : 1.02

* * *

- Experiment Notes: chemical genetic growth profiling, strain panel (AID 1159580)
- Settings: S. cerevisiae deletion strains, growth OD, locus YOR144C, strain elg1
In all, about 5,500 compounds went through this assay and about 2,000 (36%) were called active. Not shown: some 18% with an inconclusive outcome. No stated cut-off is given here; in the data, active means normalized growth mostly below about 0.91 (no sharp cut-off); inconclusive means no clear call, values can overlap the other calls; inactive means mostly above about 0.92. This is one part of the list. Where a SMILES comes first, the peptide text is derived from it. Bridges are numbered along the chain shown (N, C = ends). [ ]: non-standard residue; d: D form. The star is where a group is joined. ξ: configuration not given here. ξDab(CH2SO3H) = NC(CCNCS(=O)(=O)O)C(=O)O; Heptanoyl(6-Me) = CC(C)CCCCC(=O)*; Dab = NCC[CH](N)C(=O)O
Return exactly one item of class 1 (active), class 0 (inactive)

Consider the worked cases shown below.
Molecule	Class Label
C[C@@H]1CC[C@H]2[C@@H](C)C(O)O[C@@H]3O[C@@]4(C)CC[C@@H]1[C@]32OO4 (some centres undefined)	class 1
CCC(C)C1NC(=O)C(CCNCS(=O)(=O)O)NC(=O)C(NC(=O)C(CCNCS(=O)(=O)O)NC(=O)C(NC(=O)C(CCNCS(=O)(=O)O)NC(=O)CCCCC(C)C)C(C)O)CCNC(=O)C(C(C)O)NC(=O)C(CCNCS(=O)(=O)O)NC(=O)C(CCNCS(=O)(=O)O)NC(=O)C(C(C)CC)NC1=O (centres undefined) ({Heptanoyl(6-Me)}-[ξDab(CH2SO3H)]T[ξDab(CH2SO3H)][Dab][ξDab(CH2SO3H)]II[ξDab(CH2SO3H)][ξDab(CH2SO3H)]T; lactam 4-C; configuration not given here)	class 0

input: Just curious, what result did CC1C(=O)OC2C1CCC1(C)C=CC(=O)C3(C)OC213 (centres undefined) get here?
output: class 0

input: Please indicate how the test categorized Cc1ccc(-c2cc(C(F)(F)F)nn2-c2ccc(S(N)(=O)=O)cc2)cc1 .
output: class 0

* * *

- Experiment Notes: chemical genetic growth profiling, strain panel (AID 1159580);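 also: tested at 20 µM; growth read once vehicle control cultures reached saturation at 30 °C; 1 = growth at the plate median or of vehicle wells; lower values mean less growth of the strain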
- Settings: S. cerevisiae deletion strains, growth OD, locus YAL026C, strain drs2, hits give low values
The campaign covered roughly 5,500 compounds. About 2,000 (36%) were called active. Inconclusive results (about 18%) are left out. The list shows a part of the results.
The reader will find reported normalized growth values listed item by item below.
Enter a number only.

The cases that follow already have their normalized growth on record.
Compound	normalized growth
OC(CCN1CCCCC1)(c1ccccc1)C1CCCCC1 (stereo unspecified)	0.994
CCOP(=S)(OCC)Oc1nc(Cl)c(Cl)cc1Cl	0.941
COc1ccc2c(c1)c(CC(=O)O)c(C)n2C(=O)c1ccc(Cl)cc1	0.974
Cc1ccc(N=CN(C)C=Nc2ccc(C)cc2C)c(C)c1	0.962
O=C1C(O)=C(O)C(=O)C(O)=C1O	1.02

// field: normalized growth; key: COc1c(-c2coc3cc4c(cc3c2=O)CC(O)C(C)(C)O4)ccc2c1C=CC(C)(C)O2 (stereo unspecified) ; value = 0.978

* * *

- Experiment Notes: chemical genetic growth profiling, strain panel (AID 1159580);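 also: tested at 20 µM; growth read once vehicle control cultures reached saturation at 30 °C; 1 = growth at the plate median or of vehicle wells; lower values mean less growth of the strain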
- Settings: S. cerevisiae deletion strains, growth OD, locus YMR078C, strain ctf18, hits give low values
About 2,000 (36%) of roughly 5,500 compounds were called active. Inconclusive results (about 18%) are left out. This is one part of the list.
Recorded measurements of normalized growth, one per entry
Answer field: number only, no words.

Compound	Measure Name	Data Value
COC(=O)C[C@H]1C(C)(C)C(=O)[C@@H]2CC3C4=CC(=O)O[C@@H](c5ccoc5)[C@]4(C)CCC3[C@@]1(C)C2=O (stereo partly drawn)	normalized growth	0.958

Form field normalized growth, entry Cc1cc(O)c2c(c1)Cc1cccc(O)c1C2=O : 0.974

// recorded normalized growth for Nc1c2ccccc2nc2ccccc12 : 0.763

Form: compound = Cc1cc(C(C)(C)C)c(O)c(C(C)(C)C)c1 ; normalized growth = 0.995

# normalized growth (compound: NNc1nncc2ccccc12 ) is 0.993

* * *

Each entry below carries its recorded normalized growth.
- Experiment Notes: chemical genetic growth profiling, strain panel (AID 1159580);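 also: tested at 20 µM; growth read once vehicle control cultures reached saturation at 30 °C; 1 = growth at the plate median or of vehicle wells; lower values mean less growth of the strain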
- Settings: S. cerevisiae deletion strains, growth OD, locus YER167W, strain BCK2, hits give low values
In all, about 5,500 compounds went through this assay and about 2,000 (36%) were called active. Inconclusive results (about 18%) are left out. The list shows a part of the results.
Form field (numeric): enter value without unit.

For orientation, consider the following solved cases.
Compound	normalized growth
C[C@]12CCC(=O)C=C1CCC1C2[C@@H](O)C[C@@]2(C)C1CC[C@]2(O)C(=O)CO (some centres not stated)	1.01
NC(N)=N/N=C/c1c(Cl)cccc1Cl	1
O=c1[nH]cc(F)c(=O)[nH]1	0.795
Nc1c2ccccc2nc2ccccc12	0.614

// O=c1cc(CO)occ1O : normalized growth value = 1.01

C#C[C@]1(O)CCC2C3CCC4=C(CCC(=O)C4)C3CC[C@@]21C (some centres not stated) yielded normalized growth of 1.01

Record CC(=O)Nc1ccc(OCC(O)CNC(C)C)cc1 (configuration not stated) , field normalized growth: 1.01

The value of normalized growth measured for the compound O=c1oc2cc(O)ccc2s1 turned out to be 0.965

For CC(C)=CCCC1(C)C=Cc2c(O)c3c(c(CC=C(C)C)c2O1)OC12C(=CCCC1C(C)(C)O[C@@]2(C/C=C(\C)C(=O)O)C(=O)O)C3=O (some centres not stated) the compound record lists normalized growth as 0.807

Value of normalized growth reported for the compound CC(=O)OC1CC[C@@]2(C)C(CC[C@]3(C)C2CCC2C4CC(C)(C)CCC4(C(=O)O)CC[C@]23C)C1(C)C (some centres not stated) is 0.998

Summary for this compound, CC(=O)O[C@@H]1CC[C@@]2(C)C(CC[C@]3(C)C2CC=C2C4CC(C)(C)CC[C@]4(C(=O)O)CC[C@]23C)C1(C)C (some centres not stated) : normalized growth is 1.01

Form: compound = N#CC(O[C@@H]1O[C@H](CO[C@@H]2O[C@H](CO)[C@@H](O)[C@H](O)[C@H]2O)[C@@H](O)[C@H](O)[C@H]1O)c1ccccc1 (some centres not stated) ; normalized growth = 1

Reported normalized growth for CC(C)=CCCC1(C)C=Cc2c(O)c3c(c(CC=C(C)C)c2O1)OC12C(=CC4CC1C(C)(C)OC2(C/C=C(/C)C(=O)O)C4O)C3=O (configuration not stated) was 0.995

Lab note: CC(C)=CCCC1(C)C=Cc2c(O)c3c(c(CC=C(C)C)c2O1)OC12C(=CC4CC1C(C)(C)OC2(C/C=C(/C)C(=O)O)C4=O)C3=O (configuration not stated) gave normalized growth of 0.874

What the record says about C#C[C@]1(O)CCC2C3CCC4=CC(=O)CC[C@@H]4C3CC[C@@]21C (some centres not stated) : normalized growth is 0.991

get_value(item= CC(=O)O[C@H]1CC[C@@]2(C)C(CC[C@]3(C)C2CC=C2C4CC(C)(C)CC[C@]4(C)CC[C@]23C)C1(C)C (some centres not stated) , readout=normalized growth) returns 1

According to the records, this compound C[C@@H]1OC(O[C@H]2[C@H](O)[C@@H](O)[C@H](OC[C@H]3O[C@@H](OC(=O)[C@]45CCC(C)(C)CC4C4=CCC6[C@@]7(C)CC[C@H](OC8OC[C@H](O)[C@H](O)[C@H]8OC8O[C@@H](C)[C@H](O)[C@@H](O)[C@H]8O)[C@@](C)(CO)C7CC[C@@]6(C)[C@]4(C)CC5)[C@H](O)[C@@H](O)[C@@H]3O)O[C@@H]2CO)[C@H](O)[C@H](O)[C@H]1O (some centres not stated) displays normalized growth of 1
